- Procedure Summary: qHTS Assay for Identifying Gametocytocidal Compounds (AID 743244);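 note: % is set by controls: 0 for no effect and ±100 for the full control effect; actives lower the fluorescent signal which means gametocytes are killed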
- Experimental Context: P. falciparum 3D7 stage III-V gametocytes, alamarBlue, 72 h; stronger effect = lower value
Records with an inconclusive call do not appear.
Attribute Measured: max response (%)
Could you give me the number in %? Just the number is fine.

Below are worked cases with known answers.
# Compound, max response [%]
rows = [
    ("CCN1CCN(c2cc3c(cc2F)c(=O)c(C(=O)O)cn3C2CC2)CC1", 1.09),
    ("CC(C)n1nc(-c2cc3cc(O)ccc3[nH]2)c2c(N)ncnc21", -4.02),
    ("O=c1ccc2ccccc2o1", 15.4),
    ("CN=C(NC#N)Nc1ccc(C2=NNC(=O)CC2C)cc1 (configuration not stated)", -3.79),
    ("C/C=C/c1ccc(OC)cc1", 16),
]

// query So what does the record say about max response for CCCCN1CCCC1C(=O)Nc1c(C)cc(C)cc1C (configuration not stated) ?
// result -5.69

// query Please look up its max response: CCOC(=O)COc1ccc2c(C)c(CCN(CC)CC)c(=O)oc2c1Cl
// result -0.591

// query What value of max response has been recorded for this entry: O=S1(=O)c2cccc3cccc(c23)N1CCCN1CCN(c2ccc(F)cc2)CC1
// result 13.8

// query What does the data say about its max response? Entry: C[C@H](CCC(=O)O)[C@H]1CC[C@H]2[C@@H]3C(=O)C[C@@H]4CC(=O)CC[C@]4(C)[C@H]3CC(=O)[C@]12C
// result 6.84

// query Can you look up the measured max response of O=c1[nH]c(=O)n([C@H]2C[C@H](O)[C@@H](CO)O2)cc1C(F)(F)F for me?
// result 15

// query Fill in: max response of CCN(CC)C(=O)N1CCN(C)CC1 is ___
// result 0.149

// query Quick one: max response for O=C(N/N=C/c1ccccc1O)c1ccncc1 ?
// result -7.05
